assay: NCI Yeast Anticancer Drug Screen. Data for the sgs1 mgt1 strain (AID 161);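 note: 0% = growth of cultures given vehicle only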; details: S. cerevisiae sgs1 mgt1 strain, at 50.0 µM, hits give high values
About 79,000 compounds went through this panel and 15% of them were active in at least one assay; those are over-represented in the sample as a whole.
For each record, write down the corresponding growth inhibition.
Use % as the unit, but write only the number.

Challenge: // query growth inhibition value for entry Cc1c2ccncc2c(C)c2c1[nH]c1ccc(OCCN(C)C)cc12
Response given: 93.3

Challenge: // query growth inhibition value for entry C/C(=N/NC(=S)NCc1ccccc1)c1ncccn1
Response given: 99

Challenge: // query growth inhibition value for entry CCOC(=O)C1=C(c2ccccc2)SC(c2ccccc2)N(C(C)C)C1=O (centres undefined)
Response given: 94.5

Challenge: // query growth inhibition value for entry Cc1nc2c(O)c3c(c(O)c2nc1C)C1C=CC3CC1
Response given: 77.5

Challenge: // query growth inhibition value for entry C=CC1(NC(=O)c2ccccc2)CCC(C(C)(C)C)CC1 (centres undefined)
Response given: 43.6

Challenge: // query growth inhibition value for entry COC(=O)/C=C(\Cl)C(=O)OC
Response given: 99.5

Challenge: // query growth inhibition value for entry COc1ccc2c(Cc3cccc([N+](=O)[O-])c3)cncc2c1O
Response given: 24

Challenge: // query growth inhibition value for entry COC12C=CC(CC1)c1c2c(O)c2ncccc2c1O (centres undefined)
Response given: 72.5

Challenge: // query growth inhibition value for entry O=C(c1ccccc1)N(C1CCCCC1)C1CCCCC1
Response given: 99

Challenge: // query growth inhibition value for entry N#Cc1ccc(C2Oc3ccc(Cl)cc3C=C2[N+](=O)[O-])cc1 (centres undefined)
Response given: 91.2

Challenge: // query growth inhibition value for entry CCCCCCCCCCC[n+]1ccc(C#N)cc1
Response given: 92.5

Challenge: // query growth inhibition value for entry N#Cc1c(N)nc2c(N=Nc3ccccc3)c(N)nn2c1Nc1ccccc1
Response given: 79.2

Challenge: // query growth inhibition value for entry [O-]c1c(-c2cccc3ccccc23)sc(-c2cccc3ccccc23)[n+]1-c1ccccc1
Response given: 50.1

Challenge: // query growth inhibition value for entry CC(=O)Nc1c(Cl)ccc2c1Cc1cc([N+](=O)[O-])ccc1-2
Response given: 49.5

Challenge: // query growth inhibition value for entry CC(=O)Oc1cc(OC(C)=O)c2cc(Br)ccc2c1OC(C)=O
Response given: 62.8

Challenge: // query growth inhibition value for entry Cc1ccc(S(=O)(=O)CC2COC(CS(=O)(=O)c3ccc(C)cc3)CO2)cc1 (centres undefined)
Response given: 3

Challenge: // query growth inhibition value for entry C[n+]1cc2c3ccccc3ccc2c2ccccc21
Response given: 75.2

Challenge: // query growth inhibition value for entry CCCCCCCCNc1ccc(Cl)cc1
Response given: 98.2

Challenge: // query growth inhibition value for entry NC(N)=Nc1ccc(Cc2ccc(N=C(N)N)cc2)cc1
Response given: -17.9

Challenge: // query growth inhibition value for entry Cc1ccc(C)c(C2CCCCC2O)c1 (centres undefined)
Response given: -9.1

Challenge: // query growth inhibition value for entry CC1=CC(=O)C(O)=C/C1=C\C=C\c1ccccc1
Response given: 49.4

Challenge: // query growth inhibition value for entry NC1OC(COC(=O)c2ccccc2)C(O)C(OC(=O)c2ccccc2)C1OC(=O)c1ccccc1 (centres undefined)
Response given: 97.7

Challenge: // query growth inhibition value for entry c1ccc(-c2cc(CN3CCOCC3)c(-c3ccccc3)o2)cc1
Response given: 57.9

Challenge: // query growth inhibition value for entry C=CC(c1ccccc1)[C@@]1(OC(C)=O)C(=O)C(=O)OC1C1COC(C)(C)O1 (some centres undefined)
Response given: 88.3

###

assay: NCI Yeast Anticancer Drug Screen. Data for the mlh1 rad18 strain (AID 175); conditions: S. cerevisiae mlh1 rad18 strain growth inhibition; at 50.0 µM; hits give high values
About 79,000 compounds went through this panel and 15% of them were active in at least one assay; those are over-represented in the sample as a whole.
Use rule met when the recorded growth inhibition is no lower than 90%; use rule not met when it is lower.

Challenge: growth inhibition >= 90% for COc1cc(OC)c(C(c2cc3c(cc2O)OCO3)N2CCOCC2)c(OC)c1 (configuration not stated) ?
Response given: rule not met

Challenge: growth inhibition >= 90% for O=C(/C(=N/O)[n+]1ccccc1)c1ccccc1 ?
Response given: rule not met

Challenge: growth inhibition >= 90% for COc1ccc(CCCC(=O)O)c2c(OC)cccc12 ?
Response given: rule not met

Challenge: growth inhibition >= 90% for C=Cc1ccccc1C1(O)C=CC(OC)(OC)C=C1 ?
Response given: rule not met

Challenge: growth inhibition >= 90% for Oc1ccc(-c2ccccc2)cc1Cl ?
Response given: rule met

Challenge: growth inhibition >= 90% for CC(C)(N)COB(c1ccccc1)c1ccccc1 ?
Response given: rule met

Challenge: growth inhibition >= 90% for OCC(O)C(O)C(O)C(/C=N/Nc1ccccc1)=N\Nc1ccccc1 (configuration not stated) ?
Response given: rule not met

Challenge: growth inhibition >= 90% for Cc1ccc(Oc2ccc(C(=O)C(CN(C)C)CN(C)C)cc2)cc1 ?
Response given: rule met

Challenge: growth inhibition >= 90% for COCC(O)Cn1cc([N+](=O)[O-])nc1C (configuration not stated) ?
Response given: rule not met

Challenge: growth inhibition >= 90% for CCOC(=O)C(=N\Nc1cccc(C)c1C)/C(C)=N\NC(N)=S ?
Response given: rule not met

###

test: NCI Yeast Anticancer Drug Screen. Data for the bub3 strain (AID 167); settings: S. cerevisiae bub3 mutant strain, at 50.0 µM (retest, dose inferred, filed as 5.0), hits give high values
Compounds without any hit were thinned out: in the full panel of roughly 79,000, 15% have a hit. Active and inactive are the calls of the source. No stated cut-off is given here; in the data, active means growth inhibition above about 70%; inactive means the rest.
property.label: growth inhibition

Challenge: // query growth inhibition value for entry Clc1ccc2ns[s+]c2c1
Response given: 96% (active)

Challenge: // query growth inhibition value for entry COc1ccc(-c2n[nH]c(C(F)(F)F)c2N=NN(C)C)cc1OC
Response given: 99% (active)

Challenge: // query growth inhibition value for entry Cc1c(Cl)ccc2c1NC(=O)C2(O)CC(=O)c1ccc(Cl)cc1 (centres undefined)
Response given: 99% (active)

Challenge: // query growth inhibition value for entry C[Si](C)c1cccc(Cl)c1
Response given: 0% (inactive)

Challenge: // query growth inhibition value for entry O=C(c1ccccc1)C(Cl)c1ccccc1 (centres undefined)
Response given: 99% (active)

Challenge: // query growth inhibition value for entry O=C(C=P(c1ccccc1)(c1ccccc1)c1ccccc1)c1ccccc1-c1ccccc1C(=O)C=P(c1ccccc1)(c1ccccc1)c1ccccc1
Response given: 93% (active)

Challenge: // query growth inhibition value for entry O=C1CCCCC1=C(I)I
Response given: 2% (inactive)

Challenge: // query growth inhibition value for entry CC(OC(=O)Nc1cccc(Cl)c1)c1ccccc1 (centres undefined)
Response given: 99% (active)

Challenge: // query growth inhibition value for entry c1ccc2c(c1)ccc1ncccc12
Response given: 62% (inactive)

Challenge: // query growth inhibition value for entry CCOC(=O)C1=C(Nc2ccc(Br)cc2)OC/C1=N\NC(=O)c1ccccc1O
Response given: 1% (inactive)

Challenge: // query growth inhibition value for entry CCCCCCCCCCCC(=O)OCC1OC(OC)C(NC(=O)N(CCCl)N=O)C(O)C1O (centres undefined)
Response given: 13% (inactive)

Challenge: // query growth inhibition value for entry CN(C)CC1CCCCCC(Br)C1=O (centres undefined)
Response given: 21% (inactive)

Challenge: // query growth inhibition value for entry O=S(=O)(O)c1ccc2c(c1)C1C(C3C2C2(Cl)C(Cl)=C(Cl)C3(Cl)C2(Cl)Cl)C2(Cl)C(Cl)=C(Cl)C1(Cl)C2(Cl)Cl (centres undefined)
Response given: 91% (active)

Challenge: // query growth inhibition value for entry Nc1ccc2ccccc2c1N=Nc1ccccc1
Response given: 98% (active)

Challenge: // query growth inhibition value for entry C=CC(C)(CCC=C(C)C)OC(=O)Nc1ccccc1 (centres undefined)
Response given: -14% (inactive)

Challenge: // query growth inhibition value for entry CC(=O)N1C=C2CCC3c4ccccc4NC3C2CC1 (centres undefined)
Response given: 47% (inactive)

Challenge: // query growth inhibition value for entry O=C(Nc1ncnc2c1ncn2C1CC(O)C(CO)O1)c1ccccc1 (centres undefined)
Response given: -1% (inactive)

Challenge: // query growth inhibition value for entry CCc1[nH]c2ccccc2c1N1C(=O)CC2(CCN(Cc3ccccc3)CC2)CC1=O
Response given: 8% (inactive)

Challenge: // query growth inhibition value for entry COc1ccc(C(=O)Nc2ccc(Cl)cc2)cc1
Response given: -6% (inactive)

Challenge: // query growth inhibition value for entry CC(C)=NOc1ccc([N+](=O)[O-])cc1[N+](=O)[O-]
Response given: 81% (active)

Challenge: // query growth inhibition value for entry O=CC(I)=C(c1ccccc1)c1ccccc1
Response given: -2% (inactive)

Challenge: // query growth inhibition value for entry O=C(Nc1ccc(F)c(Cl)c1)Oc1ccc(Br)cc1Br
Response given: 11% (inactive)

Challenge: // query growth inhibition value for entry CCCOC(=O)CCCC(=O)N(CC)CC
Response given: -3% (inactive)

Challenge: // query growth inhibition value for entry CC1CCCC(C(O)(C(=O)O)C2CCCC(C)C2)C1 (centres undefined)
Response given: 97% (active)
